Reference for the values: ChEMBL document CHEMBL1201862

Tested on: SK-MEL-2
assay summary: NCI tumour cell line growth inhibition, 48 h
Calls of active or inactive are those of the source. Cut-off read from the data, not from the text of the source: active = GI50 up to about 1.1 µM and inactive = higher.
Possible outcomes: true (active), false (inactive)

1. CCOc1ccc(NC(=O)C(=O)CC(=O)c2c[n+]([O-])c3cc(C)c(C)cc3[n+]2[O-])cc1 | false
2. O=C(O)c1ccc(Nc2nc3nn(Cc4ccccc4)cc3c(=O)s2)cc1 | false
3. CCOc1cc2c(=O)oc3c(OC)ccc4ccc(c1OC)c2c43 | false
4. COc1cc2ccccc2c2cc([N+](=O)[O-])oc12 | true
5. COc1cc(/C=C2/SC(c3ccccc3)N(c3ccc(Cl)cc3)C2=O)cc(OC)c1OC (centres undefined) | false
6. COc1ccc2oc(=O)c3c(c2c1C)OC(C)(C)C=C3 | false
7. CN1COCc2cc3cc4c(cc3nc21)OCCO4 | false
8. O=C(NCCCCCCCCNC(=O)c1cccc2ccccc12)c1cccc2ccccc12 | false
9. CCc1nc2cc3cccnc3c(Cl)c2[nH]c1=O | false
10. OC12c3ccccc3C1CCCCCCCCCC21OCCO1 (centres undefined) | false
11. CC1=C(NC(=O)C(=O)NNC(=O)c2ccncc2)C(=O)c2ccccc2C1=O | false
12. Cn1c(CO)ccc1-c1ccc(-c2ccc(CO)[se]2)[se]1 | false
13. CN1CCN(c2ccc3c(c2)NCC(=O)N3)CC1 | false
14. Cn1cc(S(=O)(=O)NC(=O)Nc2ccc(Cl)cc2)c2ccccc21 | false
15. COc1ccc(Nc2nc(N)c(C(=O)c3cccs3)s2)cc1 | false
16. O=C1c2ccccc2C2CNC1(O)c1ccccc12 (centres undefined) | false
17. CCN(CC)C(=O)CCN1CC1 | false
18. COc1ccc(C2COc3c(ccc(O)c3C)C2)cc1OC (centres undefined) | false
19. CC(C)C(C/C=C1\CC(CO)(COC(=O)c2ccccc2)OC1=O)C(C)C (centres undefined) | false
20. c1ccc2c(C3CCN(CCN4CCOCC4)C3)c[nH]c2c1 (centres undefined) | false
21. C/C(=N\NC(=O)c1ccncc1)c1ccccc1Cl | false
22. CC(C)=CCC/C(C)=C/Cc1c2c(c3oc(-c4ccc(O)c(O)c4)c(O)c(=O)c3c1O)C=CC(C)(C)O2 | false
23. CCOP(=O)(OCC)OC1c2[nH]ccc2-c2cc(C(=O)OC)[nH]c2C1OC (centres undefined) | false
24. [N-]=[N+]=C1C(=O)C2CC3CC(C2)CC1C3 | false

----------
Test system: MOLT-4
assay summary: NCI tumour cell line growth inhibition, 48 h
Calls of active or inactive are those of the source. Cut-off read from the data, not from the text of the source: active = GI50 up to about 1.1 µM and inactive = higher.
Possible outcomes: 1 for active, 0 for inactive

1) Cc1cc2oc(-c3ccccc3)c(C)c(=O)c2c2c1OC(C)(C)S2 | 0
2) Cc1ccc(C2OC(COCc3ccc(Cl)cc3)C(OCc3ccc(Cl)cc3)C2O)cc1 (stereo not drawn) | 0
3) CCOC(=O)c1nc2cc(C(F)(F)F)ccc2nc1Nc1ccc(F)cc1 | 0
4) COC(=O)NC12CC3CC(CC(F)(C3)C1)C2 | 0
5) COc1cc(/C=C2/C(=O)N(C(=O)c3ccc(Cl)cc3)N=C2C)cc(OC)c1OC | 0
6) CN(C)CCCN1c2ccccc2CCc2cc([N+](=O)[O-])ccc21 | 0
7) Cc1c(-c2ccccc2)[nH]n(C2=NCCN2)c1=O | 0
8) CCOC(=O)C1C(=O)C=C(c2cc(C)ccc2O)CC1c1cccc(Cl)c1 (stereo not drawn) | 0
9) CC(=O)c1cccc(C)c1C(=O)O | 0
10) COc1c(C(=O)/C(=N/Nc2cccc(Cl)c2)C(C)=O)c(O)c(OC)c2occc12 | 0
11) Cc1cccc2nc3n(c12)C(=O)c1ccccc1-3 | 0
12) COc1ccc(/C=C2\N/C(=N/N)N=C2Cl)cc1 | 0
13) CCSC1=N/C(=C/c2ccccc2O)C(=O)N1 | 0
14) CCOC(=O)c1cc2c3ccn(Cc4ccccc4)c3c3c(C)noc3c2[nH]1 | 0
15) CCC1(c2ccc(OC)c(OC)c2)CCN2C(=O)C(O)CC21 (stereo not drawn) | 0
16) O=C(NCCCCCCCCNC(=O)c1cccc2ccccc12)c1cccc2ccccc12 | 0
17) CCC(C)CC(C)CC(C)/C=C(\C)C1=C(C)CC(C)(O)O1 (stereo not drawn) | 0
18) COCC(C)(C)/N=C/N1Cc2cc3ccccc3nc2C1 | 0
19) COc1ccc(CCc2ccccc2CC(=O)O)cc1 | 0
20) CN(C)CCNC(=O)c1cccc2ccc(-c3ccc(Br)cc3)nc12 | 1
21) O=C(/C=C\c1ccccc1-c1ccccc1)c1ccccc1 | 0
22) Cc1nc2ccccc2n1Cc1nnc2n1N=C(c1ccccc1)CS2 | 0
23) CCCCOC(=O)/C(CC(=O)C=C(C)C)=N\NS(=O)(=O)c1ccc(C)cc1 | 0
24) CSc1nc2c(c(=O)[nH]1)N=C(c1ccccc1)CC(c1ccccc1)N2 (stereo not drawn) | 0
25) Oc1nnc2c(-c3ccccc3)n[nH]c2n1 | 0
26) CC(C)(C)c1ccc(O)c(C(O)c2ccncc2)c1 (stereo not drawn) | 0
27) CC[P+](C)(Cc1ccccc1)c1ccccc1 (stereo not drawn) | 0
28) NC1=Nc2cc(C(F)(F)F)ccc2Sc2nc3ccccc3n21 | 0
